Measurement Target: SMYD2 (Homo sapiens)
Construct: Full length SMYD2 (NP 064582.2) was cloned; His6 (N, cleaved yes); FLAG (N); made in house; host or cells: Sf9 insect cells
Sequence (Q9NRG4 whole entry): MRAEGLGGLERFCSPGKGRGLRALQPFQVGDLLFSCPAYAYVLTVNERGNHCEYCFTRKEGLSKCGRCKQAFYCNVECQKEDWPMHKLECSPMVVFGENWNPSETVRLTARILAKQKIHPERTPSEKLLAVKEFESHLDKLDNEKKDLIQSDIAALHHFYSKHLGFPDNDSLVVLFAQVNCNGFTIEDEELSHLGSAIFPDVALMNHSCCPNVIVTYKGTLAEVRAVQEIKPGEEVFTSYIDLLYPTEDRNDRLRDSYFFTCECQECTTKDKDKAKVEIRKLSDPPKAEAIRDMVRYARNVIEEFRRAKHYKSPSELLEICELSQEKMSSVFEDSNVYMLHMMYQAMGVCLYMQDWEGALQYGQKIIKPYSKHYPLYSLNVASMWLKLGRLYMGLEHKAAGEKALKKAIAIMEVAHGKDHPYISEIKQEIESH
Method Notes: SMYD2 Biochemical Assay (3H-SAM, biotinylated peptide substrate, Flashplate)
Test Parameters: IC50 values are an average of n = 1 to n = 50; read-out: SMYD2 Biochem IC50 (μM)*

Compound	IC50
CC(=O)Nc1ccccc1N1C[C@@H](C)[C@H](NC(=O)c2cc(C3CC3)on2)C1 (racemic)	> 50 µM
COc1ccccc1N1C[C@H](C)[C@H](NC(=O)c2cc(C3CC3)on2)C1 (racemic)	> 50 µM
C[C@@H]1CN(CC2CCOC2)C[C@H]1NC(=O)c1cc(C2CC2)on1 (mixture of isomers)	> 50 µM
C[C@@H]1CN(CC(F)(F)F)C[C@H]1NC(=O)c1cc(C2CC2)on1 (racemic)	> 50 µM
CC(C)N1C[C@H](NC(=O)c2cc(C3CC3)on2)[C@H](C(C)(C)C)C1 (racemic)	> 50 µM
C[C@@H]1CN(CC(=O)N2CCCC2)C[C@H]1NC(=O)c1cc(C2CC2)on1 (racemic)	> 50 µM
CC(C)c1cc(C(=O)N[C@@H]2C[C@@H](CNC(=O)c3ccccc3)N(C3CC3)C2)no1 (stereo in doubt)	> 50 µM
CC(=O)Nc1ccccc1N1C[C@H](C)[C@H](NC(=O)c2cc(C3CC3)on2)C1 (racemic)	> 50 µM
